# STUDY_TARGET: T1, cyno TfR ECD (cynomolgus)
# T1 chain: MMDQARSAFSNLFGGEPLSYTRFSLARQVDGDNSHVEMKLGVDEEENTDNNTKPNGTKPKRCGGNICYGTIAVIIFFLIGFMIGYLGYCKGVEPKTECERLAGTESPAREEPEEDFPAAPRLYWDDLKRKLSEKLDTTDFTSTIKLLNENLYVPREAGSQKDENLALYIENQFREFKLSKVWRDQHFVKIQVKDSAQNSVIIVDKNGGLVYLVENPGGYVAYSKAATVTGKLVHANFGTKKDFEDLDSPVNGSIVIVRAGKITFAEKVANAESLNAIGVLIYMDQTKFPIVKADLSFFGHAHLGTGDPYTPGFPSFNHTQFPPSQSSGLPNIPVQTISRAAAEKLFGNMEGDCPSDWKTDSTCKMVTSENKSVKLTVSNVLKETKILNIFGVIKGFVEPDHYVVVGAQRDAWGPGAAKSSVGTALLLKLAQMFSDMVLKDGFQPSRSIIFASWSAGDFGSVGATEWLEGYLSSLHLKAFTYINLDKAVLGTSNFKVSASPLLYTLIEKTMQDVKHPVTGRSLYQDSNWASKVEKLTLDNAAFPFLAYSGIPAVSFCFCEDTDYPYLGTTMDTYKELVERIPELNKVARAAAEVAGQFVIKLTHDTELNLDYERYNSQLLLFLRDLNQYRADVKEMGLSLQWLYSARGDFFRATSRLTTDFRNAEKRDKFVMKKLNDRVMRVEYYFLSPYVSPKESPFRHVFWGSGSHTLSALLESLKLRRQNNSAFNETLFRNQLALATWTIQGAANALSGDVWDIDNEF
# METHOD_DESCRIPTION: SPR
PROPERTY: pKd
# pKd is unitless: minus log10 of the molar concentration; print number only

Request: Which pKd value belongs to Hu7A4.v15 Fab (antibody, V domains shown) VH: EVQLVQSGAEVKKPGASVKVSCKGSGYTFTDYAMHWVRQAPGQGLEWMGGISTYFGRTNYNQKFKGRVTMTVDTSISTAYMELSRLRSDDTAVYYCARGLSGNYVMDYWGQGTTVTVSS VL: DIVMTQSPDSLAVSLGERATINCRASESVDSYGNSFMHWYQQKPGQPPKLLIYRASNLESGVPDRFSGSGSRTDFTLTISSLQAEDVAVYYCQQSNEAPPTFGQGTKLEIK ?
Response: 8.37

Request: Which pKd value belongs to Mu7A4 Fab (antibody, V domains shown) VH: QVQLQQSGPELVRPGVSVKISCKGSGYTFTDYAMHWVKQSHAKSLEWIGGISTYFGRTNYNQKFKGRATMTVDKSSSTAYMELARLTSEDSALYYCARGLSGNYVMDYWGQGTSVTVSS VL: DIVLTQSPASLAVSLGQRATISCRASESVDSYGNSFMHWYQQKPGQPPKLLIYRASNLESGIPARFSGSGSRTDFTLTINPVEADDVATYYCQQSNEGPPTFGGGTKLEIK ?
Response: 9.13
